ASSAY_SYSTEM: human ether-à-go-go-related gene (hERG) potassium channel (human)
MEASUREMENT_DESCRIPTION: primary screen, population patch clamp on CHO cells stably expressing hERG; higher = less effect of the substance
Out of some 310,000 compounds screened, about 2,200 (0.71%) showed an effect of 50% or more. The effect is printed as a negative number. The list comes from a sample in which strong results are over-represented; it also holds close analogues and randomly drawn compounds.
hERG current change (%, negative = inhibition) at 1uM for assorted compounds
Please format your answer as a value with the unit trailing.

{"CHEMICAL_SMILES": "CCOCCCN(C)C1CCN(C(=O)c2oc3ccccc3c2NC(=O)Cc2ccc(F)cc2)CC1", "REPORTED": "-85.2%"}

In: Hi! What's the reported hERG current change (%, negative = inhibition) at 1uM for `c1ccc(CCCN2CCOCC2)cc1` on human ether-à-go-go-related gene (hERG) potassium channel (human)?
Out: 22.1%

---

ASSAY_SYSTEM: human ether-à-go-go-related gene (hERG) potassium channel (human, UniProt Q12809)
Sequence (Q12809 whole entry, looked up): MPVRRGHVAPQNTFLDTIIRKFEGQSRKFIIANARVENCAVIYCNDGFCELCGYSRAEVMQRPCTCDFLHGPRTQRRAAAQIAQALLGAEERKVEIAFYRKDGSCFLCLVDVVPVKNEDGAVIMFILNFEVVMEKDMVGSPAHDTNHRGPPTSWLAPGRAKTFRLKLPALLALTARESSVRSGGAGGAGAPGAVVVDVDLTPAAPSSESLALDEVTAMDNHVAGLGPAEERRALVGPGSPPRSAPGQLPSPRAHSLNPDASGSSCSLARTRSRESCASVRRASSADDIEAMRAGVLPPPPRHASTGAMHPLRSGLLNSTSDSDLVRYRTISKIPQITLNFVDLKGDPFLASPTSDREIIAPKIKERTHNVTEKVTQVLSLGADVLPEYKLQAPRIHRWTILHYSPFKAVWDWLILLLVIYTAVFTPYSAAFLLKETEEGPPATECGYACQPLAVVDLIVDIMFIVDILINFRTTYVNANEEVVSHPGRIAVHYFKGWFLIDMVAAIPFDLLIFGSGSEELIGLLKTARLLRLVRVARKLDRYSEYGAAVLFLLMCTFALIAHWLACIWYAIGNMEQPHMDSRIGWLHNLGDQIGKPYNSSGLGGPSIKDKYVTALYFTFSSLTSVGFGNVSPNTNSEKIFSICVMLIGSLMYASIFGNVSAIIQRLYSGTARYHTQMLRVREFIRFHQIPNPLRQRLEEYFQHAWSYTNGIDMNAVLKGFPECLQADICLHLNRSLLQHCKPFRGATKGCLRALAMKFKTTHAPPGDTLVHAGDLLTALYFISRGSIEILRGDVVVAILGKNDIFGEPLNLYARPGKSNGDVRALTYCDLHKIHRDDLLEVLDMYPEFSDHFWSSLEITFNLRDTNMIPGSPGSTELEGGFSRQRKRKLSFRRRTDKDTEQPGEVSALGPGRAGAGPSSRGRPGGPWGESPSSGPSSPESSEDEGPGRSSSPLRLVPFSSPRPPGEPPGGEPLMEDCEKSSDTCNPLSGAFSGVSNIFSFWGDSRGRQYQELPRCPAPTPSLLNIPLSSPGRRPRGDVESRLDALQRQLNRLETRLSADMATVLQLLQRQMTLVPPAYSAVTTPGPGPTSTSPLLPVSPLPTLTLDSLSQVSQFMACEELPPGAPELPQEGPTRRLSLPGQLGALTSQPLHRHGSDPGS
MEASUREMENT_DESCRIPTION: primary screen, population patch clamp on CHO cells stably expressing hERG; higher = less effect of the substance
Screen size: about 310,000 compounds; about 2,200 (0.71%) showed an effect of 50% or more. The effect is printed as a negative number. What follows is part of a selection rich in strong results, with near analogues and random picks from the rest.
MEASUREMENT_NAME: hERG current change (%, negative = inhibition) at 1uM (%)
Kindly provide the numeric value in % only, without the unit symbol.

{"COMPOUND": "CCc1ccc2nc(Nc3nc(COC)cc(=O)[nH]3)nc(C)c2c1", "REPORTED": -64.8}
{"COMPOUND": "CC(=O)Nc1ccc(S(=O)(=O)Oc2ccc(N3C(=O)C4CCCCC4C3=O)cc2)cc1 (stereo not shown)", "REPORTED": 15.5}

In: Recorded hERG current change (%, negative = inhibition) at 1uM of `CCOC(=O)C1(Cc2cccc(OC)c2)CCN(Cc2cnc(C)s2)CC1` , please.
Out: 11

In: Recorded hERG current change (%, negative = inhibition) at 1uM of `CCOC(=O)C1(CCOc2ccccc2)CCN(Cc2cccc(OCCO)c2)CC1` , please.
Out: -84.4

In: Recorded hERG current change (%, negative = inhibition) at 1uM of `CCOC(=O)C1(CCOc2ccccc2)CCN(Cc2cccc(F)c2)CC1` , please.
Out: -7.5

In: Recorded hERG current change (%, negative = inhibition) at 1uM of `CCOC(=O)C1(Cc2cccc(OC)c2)CCN(Cc2ccc(C)s2)CC1` , please.
Out: -53.1

In: Recorded hERG current change (%, negative = inhibition) at 1uM of `CCOC(=O)C1(CCOc2ccccc2)CCN(Cc2ccc(-n3cccn3)cc2)CC1` , please.
Out: -37.8

In: Recorded hERG current change (%, negative = inhibition) at 1uM of `COCc1cc(=O)[nH]c(Nc2nc(C)c3cc(OC)ccc3n2)n1` , please.
Out: 10

In: Recorded hERG current change (%, negative = inhibition) at 1uM of `CCOC(=O)C1(CCOC)CCN(Cc2cccc(OCc3ccccc3)c2)CC1` , please.
Out: 3.99

In: Recorded hERG current change (%, negative = inhibition) at 1uM of `O=c1cc(-c2ccccc2[N+](=O)[O-])oc2ccccc12` , please.
Out: 7.73
